Tested on: Wolbachia pipientis
Assay: Anti-Wolbachia Cell-Based Screen
Type: functional
Design: scale not given: in the data most compounds retested in dose-response had high values
Settings: 5 µM
In all, about 48,000 compounds went through this assay and about 13,000 (27%) showed an effect of 50% or more. Some of the results follow.
Could you please report measured Percent Effect for the items listed next?
Entry rule: numbers only, all in %.

So the reported Percent Effect for O=C1CCC(C(=O)NCc2nn(-c3ccccc3)c3c2CCC3)CN1 (stereo not given) , on Wolbachia pipientis, turned out to be 1.199

So the reported Percent Effect for "Cn1cc(CN2CC[C@@H]3[C@@H](CCC(=O)N3CCc3ccccc3)C2)cn1" , on Wolbachia pipientis, turned out to be -6.541

So the reported Percent Effect for O=C(O)c1ccccc1-n1cc(CN2CCOC(c3cc[nH]n3)C2)cn1 (stereo not given) , on Wolbachia pipientis, turned out to be 92.78

So the reported Percent Effect for "O=C(NC[C@H]1OC[C@@H](NCc2ccccc2F)[C@@H]1O)c1ccc(F)cc1" , on Wolbachia pipientis, turned out to be -2.288

So the reported Percent Effect for CCn1cc2c(n1)CN(C(=O)c1ccncc1)CC2COCC1CC1.O=C(O)C(F)(F)F (stereo not given) , on Wolbachia pipientis, turned out to be 20.52

So the reported Percent Effect for "Cc1occc1C(=O)N1C[C@@H]2[C@@H](C1)OCC(=O)N2Cc1cccnc1.O=C(O)C(F)(F)F" , on Wolbachia pipientis, turned out to be -5.789

So the reported Percent Effect for "Cc1ccc(NC(=O)N2CCCN(C(N)=O)CC2)s1" , on Wolbachia pipientis, turned out to be -6.622

So the reported Percent Effect for "N#Cc1cccc(N2CCC(c3nccn3Cc3cscn3)CC2)n1" , on Wolbachia pipientis, turned out to be 19.37

So the reported Percent Effect for CCN(CC(=O)NC(C)C)S(=O)(=O)N1CCC(C)C1 (stereo not given) , on Wolbachia pipientis, turned out to be 1.094

So the reported Percent Effect for O=S(=O)(NCC1(O)CCOc2ccccc21)c1ccccc1F (stereo not given) , on Wolbachia pipientis, turned out to be 0

So the reported Percent Effect for COC(=O)C1CN(Cc2ccc(-c3ccncc3)cc2F)C[C@@H](C)O1 (stereo not given in full) , on Wolbachia pipientis, turned out to be 4.503

So the reported Percent Effect for CSCCC(C)NC(=O)N(C)Cc1cc(Cl)cn1C (stereo not given) , on Wolbachia pipientis, turned out to be -13.17

So the reported Percent Effect for "Cc1ccccc1C(=O)N1C[C@@H]2OCCN(c3ncccn3)[C@@H]2C1.O=C(O)C(F)(F)F" , on Wolbachia pipientis, turned out to be 105.7

So the reported Percent Effect for "COC(=O)c1cccc2nc([C@H]3CCN(Cc4ccccc4)C3)oc12" , on Wolbachia pipientis, turned out to be -1.952

So the reported Percent Effect for O=C(O)c1ccccc1-n1cc(CN2CCC(c3cc[nH]n3)C2)cn1 (stereo not given) , on Wolbachia pipientis, turned out to be 122.2

----------
Test system: Wolbachia pipientis
Experiment: Anti-Wolbachia Cell-Based Screen
Assay type: functional
Design: scale not given: in the data most compounds retested in dose-response had high values
Conditions: 5 µM
Hit rate of the full screen: of about 48,000 compounds, about 13,000 (27%) showed an effect of 50% or more. This is one part of the list.
TEST READOUT: Percent Effect
Write the quantity with the unit trailing the number.

So the reported Percent Effect for "COc1ccc(F)cc1S(=O)(=O)N1CCN(CCn2ccnc2)CC1" , on Wolbachia pipientis, turned out to be 123.5%

So the reported Percent Effect for "COc1ccc(Cl)cc1CNCCCn1ccnc1" , on Wolbachia pipientis, turned out to be 10.95%

So the reported Percent Effect for "COc1nc2ccn(CCc3cnccn3)c(=O)c2cc1C#N" , on Wolbachia pipientis, turned out to be -4.634%

So the reported Percent Effect for "CCc1ncc(-c2nccn2-c2cccc(CC(=O)O)c2)cn1" , on Wolbachia pipientis, turned out to be -3.277%

So the reported Percent Effect for "O=S(=O)(c1cccc(F)c1)N1C[C@@H]2COC[C@]2(COCC2CC2)C1" , on Wolbachia pipientis, turned out to be -1.949%

So the reported Percent Effect for "Cn1c(=O)oc2ccc(Nc3ncc(C#N)cc3Cl)cc21" , on Wolbachia pipientis, turned out to be -1.266%

So the reported Percent Effect for "CCOc1ccc(CNCCCn2ccnc2)cc1OC" , on Wolbachia pipientis, turned out to be -15.55%

So the reported Percent Effect for "COc1cc(N2CCC3(CCCN3Cc3ccn(C)n3)CC2)ncn1.O=C(O)C(F)(F)F" , on Wolbachia pipientis, turned out to be -11.95%

So the reported Percent Effect for "Cc1nc(C(C)(C)C)sc1C(=O)NCCn1cccn1" , on Wolbachia pipientis, turned out to be 3.617%

----------
Test system: Wolbachia pipientis
Test: Anti-Wolbachia Cell-Based Screen
Type: functional
Set-up: scale not given: in the data most compounds retested in dose-response had high values
Settings: 5 µM
Screen size: about 48,000 compounds; about 13,000 (27%) showed an effect of 50% or more. The list shows a part of the results.
TEST READOUT: Percent Effect
Write the quantity with the unit trailing the number.

Lookup result for "O=C1CCC(C(=O)N2CCC(Cn3cc(C4CCCC4)nn3)CC2)=NN1" ; measured Percent Effect: -1.401%

Lookup result for "CNC(=O)[C@H]1C[C@@H]2CCN(CCc3ccccc3)C[C@@H]2O1.O=C(O)C(F)(F)F" ; measured Percent Effect: -33.06%

Lookup result for "O=C(NCC1CCOCC1)[C@H]1C[C@@H]2CCN(Cc3ccncc3)C[C@@H]2O1.O=C(O)C(F)(F)F.O=C(O)C(F)(F)F" ; measured Percent Effect: 7.253%

Lookup result for "COCC(=O)NCc1cccnc1-n1cnc2ccccc21" ; measured Percent Effect: 13.4%

Lookup result for "Fc1ccccc1CN1CCCN(c2ccc3cc[nH]c3n2)CC1" ; measured Percent Effect: -2.258%

Lookup result for O=C(CCc1nc(Cl)n[nH]1)NC1CCCN(CC2CCCCC2)C1 (stereo unspecified) ; measured Percent Effect: -7.697%

Lookup result for "O=C(O)C(F)(F)F.O=C(O)C(F)(F)F.O=C(c1ccncc1)N1CC[C@@H]2CN(C3CCOCC3)CCO[C@@H]2C1" ; measured Percent Effect: 103.2%

Lookup result for "CCc1nc(CN2CCCN(c3cnc4ccccc4n3)CC2)no1" ; measured Percent Effect: -8.028%

Lookup result for Cc1nc(CNC(=O)CC2C(=O)NCCN2Cc2ccccc2C)n[nH]1 (stereo unspecified) ; measured Percent Effect: 4.07%

Lookup result for "O=C([C@@H]1C[C@@H]2CCN(Cc3ccco3)C[C@H]2O1)N1CCCO1" ; measured Percent Effect: -6.348%

Lookup result for "O=C(O)C(F)(F)F.O=C(O)C(F)(F)F.c1csc(CN2CCO[C@@H]3CN(C4CCOCC4)C[C@@H]3C2)c1" ; measured Percent Effect: -1.995%

----------
System: Wolbachia pipientis
Experiment: Anti-Wolbachia Cell-Based Screen
Format: functional
Design: scale not given: in the data most compounds retested in dose-response had high values
Conditions: 5 µM
Hit rate of the full screen: of about 48,000 compounds, about 13,000 (27%) showed an effect of 50% or more. This is one part of the list.
TEST READOUT: Percent Effect (%)
Entry rule: numbers only, all in %.

Lookup result for "CC(=O)N1CCCN(C(=O)NCCc2ccc(Cl)s2)CC1" ; measured Percent Effect: 4.085

Lookup result for "O=C(Cc1cnc(-c2c(Cl)cccc2Cl)s1)N1CCOCC1" ; measured Percent Effect: 134.1

Lookup result for CC(=O)N1CCCC(c2nccnc2Nc2nc(C)cc(C)n2)C1 (configuration not stated) ; measured Percent Effect: 92.16

Lookup result for "O=C(CCN1CCCCO1)N1CC[C@H](O)[C@@H](O)C1" ; measured Percent Effect: -19.59

Lookup result for "CC(=O)c1sc2nc3c(c(C(F)(F)F)c2c1N)CN(C(C)=O)CC3" ; measured Percent Effect: -4.263

Lookup result for "Cc1nc2ccnn2c(C)c1CCC(=O)N1CCC(C(N)=O)CC1" ; measured Percent Effect: 1.242

Lookup result for "CCn1cnnc1C1CCN(C(=O)c2ccc(Cl)s2)CC1" ; measured Percent Effect: 1.567

----------
Could you please report measured Percent Effect for the items listed next?
System: Wolbachia pipientis
Test: Anti-Wolbachia Cell-Based Screen
Assay type: functional
Design: scale not given: in the data most compounds retested in dose-response had high values
Conditions: 5 µM
The campaign covered roughly 48,000 compounds. About 13,000 (27%) showed an effect of 50% or more. Some of the results follow.
Entry rule: numbers only, all in %.

Lookup result for "O=C(CCn1nc(-c2cccs2)oc1=O)Nc1cccc(F)c1" ; measured Percent Effect: 101.8

Lookup result for "CNC(=O)c1cccc(NC(=O)Cn2nc(-c3cccs3)oc2=O)c1" ; measured Percent Effect: -3.203

Lookup result for "COC(=O)N1CCN(CCCc2nnnn2-c2ccccc2)CC1" ; measured Percent Effect: -41.56

Lookup result for "COc1ccc(C)cc1CNC(=O)C1=NN(c2ccccc2)C(=O)CN1" ; measured Percent Effect: 14.16

Lookup result for "CC(=O)c1cccc(NC(=O)Cn2cnc(-c3cccs3)cc2=O)c1" ; measured Percent Effect: 8.004
